Cited source for all entries: the supplement of paper PMC3334620

Biological target: Sut1 (UniProt P53032)
Sequence: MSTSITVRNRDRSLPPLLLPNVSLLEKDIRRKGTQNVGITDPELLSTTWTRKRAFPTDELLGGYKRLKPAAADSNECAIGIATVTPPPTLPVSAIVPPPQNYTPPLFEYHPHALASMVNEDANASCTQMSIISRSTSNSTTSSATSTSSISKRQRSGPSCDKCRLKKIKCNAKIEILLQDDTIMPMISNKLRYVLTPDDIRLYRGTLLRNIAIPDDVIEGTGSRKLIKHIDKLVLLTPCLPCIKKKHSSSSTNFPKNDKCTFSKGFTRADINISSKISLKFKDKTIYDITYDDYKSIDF
Test: PBM E-score (8-mer binding enrichment) (E-score (-0.5 to 0.5)); higher = stronger / more preferred TF binding
Conditions: protein concentration: 200 nM; construct: GST-full length
Over roughly 33,000 sequences, “E-score (-0.5 to 0.5)” has its median near -0.017; the highest 2% begin near 0.3. This is one part of a sample in which the highest values are shown more often than they occur.
Measurement name: PBM E-score
One number for each entry.

Examples with answers:
Macromolecule sequence: CAAGTTTA
PBM E-score: 0.0197
//
Macromolecule sequence: AAAGTTTA
PBM E-score: 0.203
//
Macromolecule sequence: AGAGTTCA
PBM E-score: -0.0646
//
Macromolecule sequence: ATCCCTCC
PBM E-score: -0.194
//
Macromolecule sequence: AAGCCAGG
PBM E-score: -0.253

// for each sequence below, give its PBM E-score
1. AGAGTTTA
2. CGAGCCCG
3. GGAGTTCA
4. CTTCTCTC
5. ATGAGTCA

1. 0.27
2. -0.187
3. 0.339
4. -0.0216
5. -0.0351

The sequence identified as `GGCAAACA` registered its PBM E-score at -0.119
